# Tested on: CCRF-CEM leukemia
# assay.comment: NCI tumour cell line growth inhibition, 48 h
recorded.metric: TGI

Prompt line: Entry under review: Nc1ccc(-c2nc3ccccc3[nH]2)c2ccccc12 . Reported TGI?
Response line: > 43.2 µM

Prompt line: Look up TGI for this compound: O=C(Oc1cccnc1)c1ccsc1Nc1ccnc(C(F)(F)F)c1
Response line: > 100 µM

Prompt line: I have this compound here, COc1cccc(NC(=O)C(C#N)=C(SC)SC)c1 , and I need its recorded TGI.
Response line: > 100 µM

Prompt line: What value of TGI has been recorded for this entry: O=P1(Oc2ccccc2)C(c2ccccc2)C(c2ccccc2)=NN1c1ccccc1 (stereo unspecified)
Response line: > 100 µM

Prompt line: Give the measured TGI of COCCOCOc1ccc(OCOCCOC)c2c1C(=O)c1ccccc1C2=O .
Response line: > 100 µM

Prompt line: # get_value(readout='TGI', item= Brc1c(C#CCC2CCCCC2)ccc(C#CCC2CCCCC2)c1Br )
Response line: > 100 µM

Prompt line: Requested field: TGI. Item: CCOC1=C2N=C(Cc3ccccc3F)N=C2C(=O)c2ccccc21
Response line: > 100 µM

Prompt line: Endpoint output: TGI of Cc1ccc(N=Nc2c(O)c(C(=O)Nc3ccccc3)cc3ccccc23)c([N+](=O)[O-])c1 . Value?
Response line: > 100 µM

Prompt line: Request the reported TGI associated with CC1=CC(=O)C(O)C2(C)C1CC(O)C13COC4(C)C(OC(=O)C41)C(O)C23 (stereo unspecified)
Response line: > 100 µM

Prompt line: Look at this compound and give its reported TGI. C[C@H]1C=C2[C@@H]3CC(C)(C(=O)O)CC[C@]3(C)CC[C@]2(C)[C@]2(C)CC[C@H]3C(C)(C)[C@@H](OC(=O)c4cccc5c(=O)c6ccccc6[nH]c45)CC[C@]3(C)[C@@H]12 (stereo partly specified)
Response line: > 100 µM

Prompt line: Item under review: CCN(CC)CCNCc1cc(Cl)cc2c1OCOC2 . Reported TGI?
Response line: > 10 µM

Prompt line: May I ask what TGI has been recorded for CCN(CCO)CC(C)Nc1ccc([N+](=O)[O-])c2sc3ccccc3c(=O)c12 (stereo unspecified) ?
Response line: 7.19 µM

Prompt line: For O=C(NC1CCCC1=O)c1ccccc1 (stereo unspecified) , what is its reported TGI?
Response line: > 100 µM

Prompt line: I am curious: what TGI value has been reported for O=C(Nc1cccc(Nc2ncc(Br)c(NCCc3cnc[nH]3)n2)c1)N1CCCC1 ?
Response line: 29 µM

Prompt line: Which measured TGI value corresponds to CC1(O)OC(=O)C2=C1CCC1C2CCC2(C)C(O)CCC12 (stereo unspecified) ?
Response line: > 100 µM

Prompt line: Reported TGI for O=C1NC(=S)N(c2ccccc2)C1=O : what is it?
Response line: > 100 µM

Prompt line: Fill blank: measured TGI of the compound COc1ccc(C=O)c(NC(=O)C(C)C)c1 is ____.
Response line: > 10 µM

Prompt line: Give its TGI value. Item: COC12c3ccccc3-c3ccccc3C1[C@H]1C(=O)OC(=O)[C@H]12 (stereo partly specified)
Response line: > 10 µM

Prompt line: Param item = Cc1nc2ccccc2c(/C=C/c2ccc(Br)cc2)c1C(=O)/C=C/c1ccccc1 ; retrieve measured TGI.
Response line: > 100 µM

Prompt line: Which value of TGI has been reported for O[C@H]1[C@H](O)[C@@H](O)[C@@]2(O)C[C@@H](O)[C@@H]1N2 in the records?
Response line: > 100 µM

Prompt line: Would you mind telling me what TGI value was observed for c1ccc(CSCCc2ccncc2)cc1 ?
Response line: > 100 µM

Prompt line: Fill in: TGI of Cc1ccc(/C(O)=C/C(=O)C(=O)NN=C(c2ccccc2)c2ccccc2)cc1 is ___
Response line: > 100 µM

Prompt line: // returns reported TGI for input Cc1n[nH]c(=O)n1/N=C/c1ccc([N+](=O)[O-])o1
Response line: > 100 µM

Prompt line: Which value of TGI has been reported for CCOc1cc(NC(C)=O)ccc1C(=O)NN1C(=O)C(Cl)C1c1ccco1 (stereo unspecified) in the records?
Response line: 49.1 µM

Prompt line: Record request: TGI value, item CCN(CC)Cc1sc2nc3ccccc3n2c1-c1ccc(OC)cc1
Response line: 67.6 µM

Prompt line: Need TGI, item N#C/C(=C\c1c[nH]c2ccccc12)C(=O)c1ccc(O)c(O)c1
Response line: > 36.2 µM
